Listed next: entries and their corresponding Vd.
- protocol_details: in vivo
- test_context: Mouse Balb Nu/Nu, 10 mg/kg IV bolus, single, read-out: Vdss (mL/kg) Volume of distribution at steady state

Illustrative cases are given below, each with its answer.
CN(C)c1ccc(Oc2cc(O)cc(O)c2-c2cc(C(=O)NC3CCN(C4CCC5(CC4)OCCO5)CC3)no2)cc1: 4940 mL/kg
CN1CCC(NC(=O)c2cc(-c3c(O)cc(O)cc3Oc3ccc(N(C)C)cc3)no2)CC1: 12500 mL/kg

# context switch: different compound, same Vd
Recorded result, CN1CCC(NC(=O)c2cc(-c3c(O)cc(O)cc3Oc3ccc([N+](=O)[O-])cc3)no2)CC1 , Vd: 4470 mL/kg

src = patent US8993556B2
